biological target: Potassium-transporting ATPase alpha chain 1 (Sus scrofa); assay: Compound was evaluated for its ability to inhibit K+-stimulated ATPase activity
Sequence (P19156 whole entry): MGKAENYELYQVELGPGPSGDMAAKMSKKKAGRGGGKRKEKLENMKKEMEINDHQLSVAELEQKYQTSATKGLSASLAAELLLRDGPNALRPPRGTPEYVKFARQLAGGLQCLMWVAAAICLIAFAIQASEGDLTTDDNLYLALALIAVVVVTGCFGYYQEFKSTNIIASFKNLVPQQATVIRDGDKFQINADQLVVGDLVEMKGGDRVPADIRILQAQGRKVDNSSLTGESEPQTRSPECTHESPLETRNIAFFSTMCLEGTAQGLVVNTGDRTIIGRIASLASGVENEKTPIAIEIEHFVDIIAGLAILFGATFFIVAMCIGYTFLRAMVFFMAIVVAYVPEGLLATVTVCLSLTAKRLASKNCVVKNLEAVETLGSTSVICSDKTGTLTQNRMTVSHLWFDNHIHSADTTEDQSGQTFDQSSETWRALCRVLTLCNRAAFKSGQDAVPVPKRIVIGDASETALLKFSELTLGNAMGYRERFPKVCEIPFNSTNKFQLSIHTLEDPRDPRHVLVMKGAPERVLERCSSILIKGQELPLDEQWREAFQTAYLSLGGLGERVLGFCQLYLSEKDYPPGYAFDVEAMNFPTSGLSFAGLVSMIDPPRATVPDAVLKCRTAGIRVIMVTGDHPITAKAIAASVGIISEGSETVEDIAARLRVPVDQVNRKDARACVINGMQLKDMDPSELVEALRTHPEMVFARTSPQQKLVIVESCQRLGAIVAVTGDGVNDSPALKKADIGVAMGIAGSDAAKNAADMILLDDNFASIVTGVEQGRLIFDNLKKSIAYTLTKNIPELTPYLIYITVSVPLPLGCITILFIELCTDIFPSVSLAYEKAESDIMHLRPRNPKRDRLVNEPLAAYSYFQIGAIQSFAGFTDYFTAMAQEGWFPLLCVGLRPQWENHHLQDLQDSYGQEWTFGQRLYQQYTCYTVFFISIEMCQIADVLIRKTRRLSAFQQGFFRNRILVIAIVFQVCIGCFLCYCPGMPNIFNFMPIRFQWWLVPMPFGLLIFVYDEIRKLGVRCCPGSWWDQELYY
PROPERTY_LABEL: Ki (nM)
Record the value in nM, omitting the unit from your answer.

Fill in: Ki of CCCc1nc(-c2cc(N)ccn2)c(-c2ccccc2C)s1 is ___
838

====

assay: Ability to inhibit Na(+)/K(+)-stimulated ATPase activity in hog kidney; parameters: species or system Sus scrofa
PROPERTY_LABEL: pIC50
Answer as the number alone; pIC50 is minus log10 of concentration in mol/L.

Fill in: pIC50 of CCCc1nc(-c2cc(N)ccn2)c(-c2ccccc2C)s1 is ___
4.36

====

molecular target: UniProtKB P19156; test: Ability to inhibit H+/K+ stimulated ATPase activity in lympholised gastric vesicles
PROPERTY_LABEL: IC50 (µM)
Record the value in µM, omitting the unit from your answer.

Fill in: IC50 of CCCc1nc(-c2ccccn2)c(-c2ccccc2C)s1 is ___
8.2

Then this compound: Cc1ccccc1-c1nc(-c2ccccn2)c(-c2ccccc2C)s1
4.9

Then this compound: CCCc1nc(-c2cccc(NC)n2)c(-c2ccccc2C)s1
12.5

====

experiment: Acid dissociation constant was reported; type: ADME
# maps each entry to its pKa
Answer with a number only.

Solved entries:
Fill in: pKa of CCCc1nc(-c2cc(N)ccn2)c(-c2ccccc2C)s1 is ___
8

Then this molecule: CCOC(=O)c1cnc2c(OC)cccc2c1Nc1ccccc1C
6.7

Now let's try a different one.
Fill in: pKa of CCCc1nc(-c2ccccn2)c(-c2ccccc2C)s1 is ___
4.2

====

target: Potassium-transporting ATPase alpha chain 1 (Sus scrofa); assay: Ability to inhibit H+/K+ stimulated ATPase activity in lympholised gastric vesicles
# maps each entry to its IC50
Answer shape: numeric part, then the unit.

Solved entries:
Fill in: IC50 of Cc1ccccc1-c1sc(Cc2ccccc2)nc1-c1ccccn1 is ___
9600 nM

Then this compound: CCCc1nc(-c2cc(N)ccn2)c(-c2ccccc2C)s1
2200 nM

More entries:
Fill in: IC50 of CCCc1nc(-c2cccc(N)n2)c(-c2ccccc2C)s1 is ___
2900 nM

Then this compound: CCCc1nc(-c2ccccn2)c(-c2ccccc2)s1
42300 nM

Then this compound: Cc1ccccc1N1CCc2cnc3c(C)cccc3c21
980 nM
